Molecular target: Neutrophil elastase (Homo sapiens)
Sequence (P08246 whole entry): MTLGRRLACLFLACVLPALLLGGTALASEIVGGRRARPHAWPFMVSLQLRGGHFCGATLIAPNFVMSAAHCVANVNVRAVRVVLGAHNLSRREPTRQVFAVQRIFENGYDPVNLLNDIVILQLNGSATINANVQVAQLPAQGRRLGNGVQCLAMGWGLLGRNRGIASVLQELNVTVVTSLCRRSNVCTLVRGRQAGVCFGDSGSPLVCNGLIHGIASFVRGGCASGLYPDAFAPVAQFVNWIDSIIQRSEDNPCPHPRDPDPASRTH
Experiment: Enzyme Kinetic Assay
Conditions: 25 °C
readout: Ki
Reply with the number and its unit after it.

Query CCC1(CC)C(=O)N(c2ccc(CS(=O)(=O)c3ccccc3)cc2)C1=O [4-oxo-β-lactam (3)] yields Ki of 630 pM

Measured values drawn from BindingDB's records for doi:10.3109/14756366.2010.486794 for this set.
